Assay: Mouse liver microsome intrinsic clearance
Type: in vitro ADME
Conditions: liver microsomes, pH 7.4
// label = Yes if microsomal CLint at 0.5 µM is not less than 4000 µL/min/mg, otherwise No

1) Cc1cc(C)c(C#N)c(SCC(=O)c2cccs2)n1 [Compound 1, c1(SCC(=O)c2cccs2)nc(C)cc(C)c1C#N]: No
2) Cc1cc(C)c(C#N)c(SCC(=O)c2ccsc2)n1: No
3) Cc1cc(C)c(C#N)c(SCC(=O)c2ccc(Cl)cc2Cl)n1: Yes
4) COc1ccccc1C(=O)CSc1nc(C)cc(C)c1C#N: Yes

###

Experiment: Parallel artificial membrane permeability assay
Assay type: in vitro ADME
Details: PAMPA, PAMPA effective permeability, donor pH 6.5, acceptor pH 7.5, 5 h, 37 °C
// classify: if (Papp at 5 h, 1 µM < 8 ×10⁻⁶ cm/s) Satisfied else Not satisfied

1) Cc1cc(C)c(C#N)c(SCC(=O)c2ccc(F)cc2F)n1 [Compound 7, O=C(CSc1nc(C)cc(C)c1C#N)c2ccc(F)cc2F]: Satisfied
2) CCc1ccc(C(=O)CSc2nc(C)cc(C)c2C#N)cc1 [Compound 5, S(c1nc(C)cc(C)c1C#N)CC(=O)c2ccc(CC)cc2]: Satisfied
3) Cc1cc(C)c(C#N)c(SCC(=O)c2ccsc2)n1 [Compound 3, S(c1nc(C)cc(C)c1C#N)CC(=O)c2cscc2]: Not satisfied
4) Cc1cc(C)c(C#N)c(SCC(=O)c2cccs2)n1 [Compound 1, c1(SCC(=O)c2cccs2)nc(C)cc(C)c1C#N]: Not satisfied
5) Cc1cc(C)c(C#N)c(SCC(=O)c2ccccc2)n1 [Compound 2, c1c(C)c(C#N)c(SCC(=O)c2ccccc2)nc1C]: Not satisfied

###

Assay: Parallel artificial membrane permeability assay
Type: in vitro ADME
Settings: PAMPA, PAMPA effective permeability, donor pH 6.5, acceptor pH 7.5, 5 h, 37 °C
outcome-measure: Papp at 5 h, 1 µM (×10⁻⁶ cm/s)

1) COc1ccc(C(=O)CSc2nc(C)cc(C)c2C#N)cc1: 24.6
2) Cc1cc(C)c(C#N)c(SCC(=O)N2CCOCC2)n1 [Compound 16, Cc1c(C#N)c(SCC(=O)N2CCOCC2)nc(C)c1]: 11.7
3) Cc1cc(C)c(C#N)c(SCC(=O)c2ccc(Cl)cc2Cl)n1: 1.7
4) Cc1cc(C)c(C(N)=O)c(SCC(=O)c2ccc(F)cc2)n1: 17.5
5) Cc1cc(C)c(C#N)c(OCC(=O)c2ccccc2)n1: 31.1
6) Cc1cc(C)c(C#N)c(SCC(=O)c2ccc(Cl)cc2)n1 [Compound 8, Cc1c(C#N)c(SCC(=O)c2ccc(Cl)cc2)nc(C)c1]: 4.3
7) COc1ccccc1C(=O)CSc1nc(C)cc(C)c1C#N: 9.3

###

Assay: Mouse liver microsome intrinsic clearance
Type: in vitro ADME
Conditions: liver microsomes, pH 7.4
// label = YES if microsomal CLint at 0.5 µM is not less than 4000 µL/min/mg, otherwise NO

1. Cc1cc(C)c(C#N)c(SCC(=O)c2ccccc2)n1 [Compound 2, c1c(C)c(C#N)c(SCC(=O)c2ccccc2)nc1C]: NO
2. Cc1cc(C)c(C#N)c(SCC(=O)c2ccc(Cl)cc2)n1 [Compound 8, Cc1c(C#N)c(SCC(=O)c2ccc(Cl)cc2)nc(C)c1]: YES
3. Cc1cc(C)c(C#N)c(SCC(=O)N2CCOCC2)n1 [Compound 16, Cc1c(C#N)c(SCC(=O)N2CCOCC2)nc(C)c1]: NO
4. CCc1ccc(C(=O)CSc2nc(C)cc(C)c2C#N)cc1: YES
5. COc1ccc(C(=O)CSc2nc(C)cc(C)c2C#N)cc1: YES
6. Cc1cc(C)c(C#N)c(OCC(=O)c2ccccc2)n1: NO
7. Cc1cc(C)c(C(N)=O)c(SCC(=O)c2ccc(F)cc2)n1: NO

Hey, just so you know, these numbers are from paper PMC11112591.
